TGT: His-tagged canine IL-31 (interleukin 31) recombinant protein (canine)
METHOD_NOTES: cell-based or functional assay
PARAMETER: pSTAT IC50 (µg/mL)
Numbers only, in µg/mL.

Recorded pSTAT IC50 (µg/mL) (binder 7475-H2K1-canIgGB (antibody, V domains shown) VH: EVQLVESGGDLVKPGGSLRLSCVASGFTFSSYAMSWIRQAPGKGLQWVAYISNGGDYIFYADTVKGRFTISRDNAKNTLYLQMNSLRAEDTAVYYCTRRGHYNTSSYWYFDVWGQGTLVTVSS VL: EIVMTQSPASLSLSQEEKVTITCKASENVGTYVSWYQQKPGQAPKLLIYGASNRYTGVPSRFSGSGSGTDFTFTISSLEPEDVAVYYCGQSYSYPPTFGAGTKVELKR ): 7.9
